Test: Selectivity index, ratio of IC50 for cytotoxicity against HEK293T cells to IC50 for antimalarial activity against asexual blood stage wild-type Plasmodium falciparum 3D7
Format: toxicity, cell-based
Settings: human, read-out: Ratio IC50
// reported selectivity ratio for each item listed
Keep the answer to the number alone.

[
  {
    "Smiles Data": "Cl.Cn1c(CN2CC3(CCN(c4ncc(C(=O)NO)cn4)C3)C2)nc2ccccc21",
    "selectivity ratio": 5070
  },
  {
    "Smiles Data": "O=C(NO)c1cnc(N2CCC3(CN(Cc4cc5ccccc5o4)C3)C2)nc1",
    "selectivity ratio": 785
  },
  {
    "Smiles Data": "O=C(NO)c1cnc(N2CCC3(CN(Cc4cccc5cccnc45)C3)C2)nc1",
    "selectivity ratio": 423
  }
]

Input line: Name the recorded selectivity ratio of the item Cn1cc(CN2CC3(CCN(c4ncc(C(=O)NO)cn4)C3)C2)c2cccnc21 in your answer.
Output line: 594

Input line: Name the recorded selectivity ratio of the item O=C(NO)c1cnc(N2CCC3(CN(Cc4cc5ccccc5s4)C3)C2)nc1 in your answer.
Output line: 794
